Item-by-item account of koff
# assayedTarget: T1, human TREM2-Fc (human, UniProt Q9NZC2 19-174)
# T1 construct: also called hTREM2; not shown: Fc part (captured by anti-human IgG1 Fc or protein A)
# T1 sequence: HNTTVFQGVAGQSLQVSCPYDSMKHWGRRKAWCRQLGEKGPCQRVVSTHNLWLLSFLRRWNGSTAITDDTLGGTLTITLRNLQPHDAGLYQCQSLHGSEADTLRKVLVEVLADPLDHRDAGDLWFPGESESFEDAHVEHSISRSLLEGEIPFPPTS
# runDescription: SPR (Biacore T200), 37 C; TREM2-Fc on protein A chip, Fab in solution
Use s⁻¹ as the unit, but write only the number.

Find the recorded koff belonging to 3.10C2-H4/3.10C2-L1 Fab (Fab, V domains shown) VH: EVQLVESGGGLVQPGGSLKLSCAASGFPFSNVWMHWVRQASGKGLEWIGHIKAKSDNYATYYAESVKGRFTISRDDSKNTIYLQMNSLKTEDTAVYYCTGLDYWGQGTTVTVSS VL: DTVLTQSPLSLPVTPGEPASISCRSSKSLLGVRDITSLYWYLQKPGQSPQLLIYRMSNLASGVPDRFSGSGSETDFTLKISRVEAEDVGVYYCAQFLRYPYTFGQGTKVEIK and report it.
0.024

Also need 3.10C2-H7/3.10C2-L1 Fab (Fab, V domains shown) VH: EVQLVESGGGLVQPGGSLKLSCATSGFPFSNVWMHWVRQASGKGLEWVAHIKAKSDNYATYYAESVKGRFTISRDDSKNTAYLQMNSLKTEDTAVYYCTGLDYWGQGTTVTVSS VL: DTVLTQSPLSLPVTPGEPASISCRSSKSLLGVRDITSLYWYLQKPGQSPQLLIYRMSNLASGVPDRFSGSGSETDFTLKISRVEAEDVGVYYCAQFLRYPYTFGQGTKVEIK , thanks.
0.018

Also need 3.10C2-H6/3.10C2-L1 Fab (Fab, V domains shown) VH: EVQLVESGGGLVQPGGSLKLSCATSGFPFSNVWMHWVRQASGKGLEWVAHIKAKSDNYATYYAESVKGRFTISRDDSKNTIYLQMNSLKTEDTAVYYCTGLDYWGQGTTVTVSS VL: DTVLTQSPLSLPVTPGEPASISCRSSKSLLGVRDITSLYWYLQKPGQSPQLLIYRMSNLASGVPDRFSGSGSETDFTLKISRVEAEDVGVYYCAQFLRYPYTFGQGTKVEIK , thanks.
0.0013

---
Find the recorded koff belonging to 3.10C2-H2/3.10C2-L1 Fab (Fab, V domains shown) VH: EVQLVESGGGLVQPGGSLKLSCATSGFPFSNVWMHWVRQASGKGLEWVGHIKAKSDNYATYYAESVKGRFTISRDDSKNTIYLQMNSLKTEDTAVYYCTGLDYWGQGTTVTVSS VL: DTVLTQSPLSLPVTPGEPASISCRSSKSLLGVRDITSLYWYLQKPGQSPQLLIYRMSNLASGVPDRFSGSGSETDFTLKISRVEAEDVGVYYCAQFLRYPYTFGQGTKVEIK and report it.
0.0059

Also need 3.10C2 Fab (Fab, V domains shown, also called 3.10C2 (3.10C2); Rat3.10C2) VH: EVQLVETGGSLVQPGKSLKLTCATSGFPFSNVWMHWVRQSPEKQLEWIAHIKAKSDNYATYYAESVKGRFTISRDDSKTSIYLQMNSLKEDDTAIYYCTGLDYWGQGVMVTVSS VL: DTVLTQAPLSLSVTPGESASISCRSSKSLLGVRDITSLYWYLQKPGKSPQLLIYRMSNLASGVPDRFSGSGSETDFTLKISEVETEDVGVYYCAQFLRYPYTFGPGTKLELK , thanks.
0.00019
